Quick reference for EC50 among some compounds
targetDesc: NAD-dependent protein deacetylase sirtuin-1 (Homo sapiens, UniProt Q96EB6)
Sequence (Q96EB6 whole entry): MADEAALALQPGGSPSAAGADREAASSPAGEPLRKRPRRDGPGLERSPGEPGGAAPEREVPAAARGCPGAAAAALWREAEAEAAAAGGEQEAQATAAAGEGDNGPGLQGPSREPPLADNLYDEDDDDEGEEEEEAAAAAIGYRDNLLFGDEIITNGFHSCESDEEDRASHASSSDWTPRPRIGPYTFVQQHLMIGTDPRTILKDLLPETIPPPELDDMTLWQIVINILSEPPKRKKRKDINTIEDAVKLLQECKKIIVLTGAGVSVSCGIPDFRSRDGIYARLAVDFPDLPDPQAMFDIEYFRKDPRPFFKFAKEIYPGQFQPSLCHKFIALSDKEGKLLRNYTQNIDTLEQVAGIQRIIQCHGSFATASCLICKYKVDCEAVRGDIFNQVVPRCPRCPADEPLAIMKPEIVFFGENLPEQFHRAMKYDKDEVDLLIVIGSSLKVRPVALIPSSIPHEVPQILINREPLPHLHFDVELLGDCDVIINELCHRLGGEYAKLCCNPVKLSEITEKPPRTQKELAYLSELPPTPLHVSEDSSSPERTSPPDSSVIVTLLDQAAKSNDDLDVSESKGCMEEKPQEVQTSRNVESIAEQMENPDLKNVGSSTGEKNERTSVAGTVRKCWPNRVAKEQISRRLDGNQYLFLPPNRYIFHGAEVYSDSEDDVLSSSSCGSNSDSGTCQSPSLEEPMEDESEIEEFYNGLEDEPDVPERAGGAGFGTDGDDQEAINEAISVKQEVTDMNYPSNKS
testProtocol: Inhibition of sirtuin 1 (unknown origin)
All answers are understood in nM, so give the number only.

Need EC50, item `Cn1nc(-c2cnc3ccccc3c2)c2cc(NCc3cc(F)ccc3S(C)(=O)=O)ccc21`
400

What do you get for `Cn1nc(C(=O)N[C@H]2CC[C@H](O)CC2)c2cc(NCc3cc(F)c(F)cc3S(C)(=O)=O)ccc21` ?
650

====

testProtocol: Oral bioavailability in human
Format: ADME, organism-based
setupConditions: in vivo
measuredAttribute: bioavailability (%)
Could you give me the number in %? Just the number is fine.

Reported bioavailability for Oc1ccc(/C=C/c2cc(O)cc(O)c2)cc1 [RESVERATROL] : what is it?
0.5

====

Here's what we have: pIC50 numbers for NAD-dependent protein deacetylase sirtuin-2 (Homo sapiens, UniProt Q8IXJ6).
# pIC50: negative log10 of molar concentration; output just the value

The examples below pair each entry with its known result.
Give the measured pIC50 of `NC(=O)c1ccccc1Nc1cccc(-c2cn(Cc3ccccc3)nn2)c1` .
5.20

Follow-up entry: `C=CCN1C(=O)/C(=C/c2ccc(-c3cccc(Cl)c3Cl)o2)C(=O)NC1=S`
5.00

More entries:
# input compound: `CCSc1ccc(CSc2cccc(C(=O)Nc3ccc(C#N)cc3)c2)cc1` ; wanted: its pIC50
5.62

====

Recorded pIC50 by entry
targetDesc: NAD-dependent protein deacetylase sirtuin-1 (Homo sapiens, UniProt Q96EB6)
Sequence (Q96EB6 whole entry): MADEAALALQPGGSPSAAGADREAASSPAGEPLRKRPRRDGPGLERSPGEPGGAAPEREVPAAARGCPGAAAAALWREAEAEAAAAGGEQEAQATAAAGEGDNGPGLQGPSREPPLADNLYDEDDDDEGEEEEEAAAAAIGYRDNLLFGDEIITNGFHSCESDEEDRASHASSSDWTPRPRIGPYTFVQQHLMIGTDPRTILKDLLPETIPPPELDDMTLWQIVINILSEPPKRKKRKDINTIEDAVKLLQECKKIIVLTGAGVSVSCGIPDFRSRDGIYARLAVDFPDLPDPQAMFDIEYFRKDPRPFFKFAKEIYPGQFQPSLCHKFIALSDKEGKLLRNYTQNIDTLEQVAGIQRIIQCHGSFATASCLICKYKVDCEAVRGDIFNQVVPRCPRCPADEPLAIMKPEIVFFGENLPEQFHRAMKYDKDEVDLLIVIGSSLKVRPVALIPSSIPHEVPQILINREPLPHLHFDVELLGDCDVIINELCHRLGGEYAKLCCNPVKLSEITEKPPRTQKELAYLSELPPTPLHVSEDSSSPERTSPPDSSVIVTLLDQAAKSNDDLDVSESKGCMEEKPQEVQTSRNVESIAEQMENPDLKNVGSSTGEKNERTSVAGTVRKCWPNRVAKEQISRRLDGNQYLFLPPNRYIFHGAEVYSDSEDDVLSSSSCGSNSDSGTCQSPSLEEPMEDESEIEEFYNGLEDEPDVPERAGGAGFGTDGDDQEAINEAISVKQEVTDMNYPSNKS
pIC50 field: float, defined as -log10 of concentration (mol/L).

Given the molecule `O=C1Nc2c(ccc(Cl)c2Cl)/C1=C\c1cc(Br)c(O)c(Br)c1` , what is its reported pIC50?
4.40

Now the same for `Nc1cc(C(=O)Nc2cccc(C(=O)Nc3ccc(S(=O)(=O)O)c4cc(S(=O)(=O)O)cc(S(=O)(=O)O)c34)c2)cc(C(=O)Nc2cccc(C(=O)Nc3ccc(S(=O)(=O)O)c4cc(S(=O)(=O)O)cc(S(=O)(=O)O)c34)c2)c1`
7.03

For the next question, use this molecule.
Given `C=CCN1C(=O)/C(=C/c2ccc(-c3cccc(Cl)c3Cl)o2)C(=O)NC1=S` , state its recorded pIC50.
5.30
